Listed here: items and their measured MIC.
tested on: S. aureus clinical isolates; assay: microbe, parasite or virus in culture; format: cell-based; details: Staphylococcus aureus, MSSA, S. aureus IHMA 1575779, MSSA / VSSA; read-out: MIC
State the answer as a number, implicitly in µg/mL.

INSERT INTO results (compound, measurement_target, endpoint_label, unit, observed_measurement) VALUES
  ('Cc1[nH]c(C(=O)Nc2nc3c(OCc4ccccc4)cc(C(=O)O)cc3s2)c(Cl)c1Cl [ULD2]', 'S. aureus clinical isolates', 'MIC', 'µg/mL', 0.5),
  ('Cc1[nH]c(C(=O)Nc2nc3ccc(C(=O)O)cc3s2)c(Cl)c1Cl [ULD1]', 'S. aureus clinical isolates', 'MIC', 'µg/mL', 1),
  ('CC(=O)NC[C@H]1CN(c2ccc(N3CCOCC3)c(F)c2)C(=O)O1 [Linezolid]', 'S. aureus clinical isolates', 'MIC', 'µg/mL', 2),
  ('C[C@H]1COc2c(N3CCN(C)CC3)c(F)cc3c(=O)c(C(=O)O)cn1c23 [Levofloxacin]', 'S. aureus clinical isolates', 'MIC', 'µg/mL', 0.25);

# evaluate next
Query: Answer with the recorded MIC for the compound listed here: Cc1onc(-c2ccccc2)c1C(=O)N[C@@H]1C(=O)N2[C@@H]1SC(C)(C)[C@@H]2C(=O)O [Oxacillin]
Response: 0.5

* * *

system: S. aureus clinical isolates; assay: microbe, parasite or virus in culture; assay type: cell-based; conditions: Staphylococcus aureus, MRSA, S. aureus IHMA 1575268, MRSA / VSSA; read-out: MIC
Endpoint label: MIC (µg/mL)
State the answer as a number, implicitly in µg/mL.

# example entries with known answers
INSERT INTO results (compound, measurement_target, unit, observed_measurement) VALUES
  ('C[C@H]1COc2c(N3CCN(C)CC3)c(F)cc3c(=O)c(C(=O)O)cn1c23 [Levofloxacin]', 'S. aureus clinical isolates', 'µg/mL', 32),
  ('Cc1[nH]c(C(=O)Nc2nc3ccc(C(=O)O)cc3s2)c(Cl)c1Cl [ULD1]', 'S. aureus clinical isolates', 'µg/mL', 1),
  ('Cc1[nH]c(C(=O)Nc2nc3c(OCc4ccccc4)cc(C(=O)O)cc3s2)c(Cl)c1Cl [ULD2]', 'S. aureus clinical isolates', 'µg/mL', 0.25);

# evaluate next
Query: Answer with the recorded MIC for the compound listed here: CC(=O)NC[C@H]1CN(c2ccc(N3CCOCC3)c(F)c2)C(=O)O1 [Linezolid]
Response: 2

* * *

test system: S. aureus clinical isolates; test: microbe, parasite or virus in culture; type: cell-based; conditions: Staphylococcus aureus, MRSA, S. aureus IHMA 1588127, MRSA / VSSA; read-out: MIC
Endpoint label: MIC

# example entries with known answers
INSERT INTO results (compound, observed_measurement) VALUES
  ('Cc1onc(-c2ccccc2)c1C(=O)N[C@@H]1C(=O)N2[C@@H]1SC(C)(C)[C@@H]2C(=O)O', '32 µg/mL'),
  ('Cc1[nH]c(C(=O)Nc2nc3ccc(C(=O)O)cc3s2)c(Cl)c1Cl', '0.5 µg/mL'),
  ('CC[C@H]1OC(=O)[C@H](C)[C@@H](O[C@H]2C[C@@](C)(OC)[C@@H](O)[C@H](C)O2)[C@H](C)[C@@H](O[C@@H]2O[C@H](C)C[C@H](N(C)C)[C@H]2O)[C@](C)(O)C[C@@H](C)CN(C)[C@H](C)[C@@H](O)[C@]1(C)O', '0.5 µg/mL'),
  ('Cc1[nH]c(C(=O)Nc2nc3c(OCc4ccccc4)cc(C(=O)O)cc3s2)c(Cl)c1Cl', '0.25 µg/mL');

Query: Answer with the recorded MIC for the compound listed here: C[C@H]1COc2c(N3CCN(C)CC3)c(F)cc3c(=O)c(C(=O)O)cn1c23
Response: 16 µg/mL

Query: Answer with the recorded MIC for the compound listed here: CC(=O)NC[C@H]1CN(c2ccc(N3CCOCC3)c(F)c2)C(=O)O1
Response: 1 µg/mL

* * *

test system: S. aureus clinical isolates; test: microbe, parasite or virus in culture; type: cell-based; conditions: Staphylococcus aureus, MRSA, S. aureus IHMA 1592755, MRSA / VSSA; read-out: MIC
Endpoint label: MIC

# example entries with known answers
INSERT INTO results (compound, endpoint_label, observed_measurement) VALUES
  ('CC(=O)NC[C@H]1CN(c2ccc(N3CCOCC3)c(F)c2)C(=O)O1', 'MIC', '2 µg/mL'),
  ('Cc1onc(-c2ccccc2)c1C(=O)N[C@@H]1C(=O)N2[C@@H]1SC(C)(C)[C@@H]2C(=O)O', 'MIC', '> 64 µg/mL'),
  ('C[C@H]1COc2c(N3CCN(C)CC3)c(F)cc3c(=O)c(C(=O)O)cn1c23', 'MIC', '16 µg/mL'),
  ('CC[C@H]1OC(=O)[C@H](C)[C@@H](O[C@H]2C[C@@](C)(OC)[C@@H](O)[C@H](C)O2)[C@H](C)[C@@H](O[C@@H]2O[C@H](C)C[C@H](N(C)C)[C@H]2O)[C@](C)(O)C[C@@H](C)CN(C)[C@H](C)[C@@H](O)[C@]1(C)O', 'MIC', '0.5 µg/mL');

Query: Answer with the recorded MIC for the compound listed here: Cc1[nH]c(C(=O)Nc2nc3c(OCc4ccccc4)cc(C(=O)O)cc3s2)c(Cl)c1Cl
Response: 0.5 µg/mL

Query: Answer with the recorded MIC for the compound listed here: Cc1[nH]c(C(=O)Nc2nc3ccc(C(=O)O)cc3s2)c(Cl)c1Cl
Response: 0.5 µg/mL

* * *

system: S. aureus clinical isolates; assay: microbe, parasite or virus in culture; assay type: cell-based; settings: Staphylococcus aureus, MRSA / USA100 / VRSA, S. aureus IHMA 672239, VRS9, MRSA / VRSA, USA100; read-out: MIC
Endpoint label: MIC (µg/mL)
State the answer as a number, implicitly in µg/mL.

# example entries with known answers
INSERT INTO assay_data (compound, observed_measurement) VALUES
  ('Cc1[nH]c(C(=O)Nc2nc3ccc(C(=O)O)cc3s2)c(Cl)c1Cl [ULD1]', 0.5),
  ('Cc1[nH]c(C(=O)Nc2nc3c(OCc4ccccc4)cc(C(=O)O)cc3s2)c(Cl)c1Cl [ULD2]', 0.25),
  ('CC(=O)NC[C@H]1CN(c2ccc(N3CCOCC3)c(F)c2)C(=O)O1 [Linezolid]', 1);

Query: Answer with the recorded MIC for the compound listed here: C[C@H]1COc2c(N3CCN(C)CC3)c(F)cc3c(=O)c(C(=O)O)cn1c23 [Levofloxacin]
Response: 64

* * *

Listed here: items and their measured MIC.
tested on: S. aureus clinical isolates; assay: microbe, parasite or virus in culture; assay type: cell-based; conditions: Staphylococcus aureus, MSSA, S. aureus IHMA 1580925, MSSA / VSSA; read-out: MIC
State the answer as a number, implicitly in µg/mL.

INSERT INTO measurements (compound, endpoint_label, observed_measurement) VALUES
  ('Cc1onc(-c2ccccc2)c1C(=O)N[C@@H]1C(=O)N2[C@@H]1SC(C)(C)[C@@H]2C(=O)O [Oxacillin]', 'MIC', 0.5),
  ('CC(=O)NC[C@H]1CN(c2ccc(N3CCOCC3)c(F)c2)C(=O)O1 [Linezolid]', 'MIC', 2),
  ('C[C@H]1COc2c(N3CCN(C)CC3)c(F)cc3c(=O)c(C(=O)O)cn1c23 [Levofloxacin]', 'MIC', 0.25);

Query: Answer with the recorded MIC for the compound listed here: Cc1[nH]c(C(=O)Nc2nc3ccc(C(=O)O)cc3s2)c(Cl)c1Cl [ULD1]
Response: 0.25

Query: Answer with the recorded MIC for the compound listed here: CC[C@H]1OC(=O)[C@H](C)[C@@H](O[C@H]2C[C@@](C)(OC)[C@@H](O)[C@H](C)O2)[C@H](C)[C@@H](O[C@@H]2O[C@H](C)C[C@H](N(C)C)[C@H]2O)[C@](C)(O)C[C@@H](C)CN(C)[C@H](C)[C@@H](O)[C@]1(C)O [Azithromycin]
Response: 1

Query: Answer with the recorded MIC for the compound listed here: Cc1[nH]c(C(=O)Nc2nc3c(OCc4ccccc4)cc(C(=O)O)cc3s2)c(Cl)c1Cl [ULD2]
Response: 0.25

* * *

test system: S. aureus clinical isolates; assay: microbe, parasite or virus in culture; assay type: cell-based; details: Staphylococcus aureus, MSSA, S. aureus IHMA 1576329, MSSA / VSSA; read-out: MIC
Listed here: items and their measured MIC.
State the answer as a number, implicitly in µg/mL.

INSERT INTO results (compound, observed_measurement) VALUES
  ('C[C@H]1COc2c(N3CCN(C)CC3)c(F)cc3c(=O)c(C(=O)O)cn1c23 [Levofloxacin]', 0.25),
  ('CC[C@H]1OC(=O)[C@H](C)[C@@H](O[C@H]2C[C@@](C)(OC)[C@@H](O)[C@H](C)O2)[C@H](C)[C@@H](O[C@@H]2O[C@H](C)C[C@H](N(C)C)[C@H]2O)[C@](C)(O)C[C@@H](C)CN(C)[C@H](C)[C@@H](O)[C@]1(C)O [Azithromycin]', 1),
  ('Cc1[nH]c(C(=O)Nc2nc3ccc(C(=O)O)cc3s2)c(Cl)c1Cl [ULD1]', 1),
  ('CC(=O)NC[C@H]1CN(c2ccc(N3CCOCC3)c(F)c2)C(=O)O1 [Linezolid]', 4),
  ('Cc1[nH]c(C(=O)Nc2nc3c(OCc4ccccc4)cc(C(=O)O)cc3s2)c(Cl)c1Cl [ULD2]', 0.5);

Query: Answer with the recorded MIC for the compound listed here: Cc1onc(-c2ccccc2)c1C(=O)N[C@@H]1C(=O)N2[C@@H]1SC(C)(C)[C@@H]2C(=O)O [Oxacillin]
Response: 0.5
